- subject.of.test: T1, HLA-A*24:02 (human)
- T1 construct: whole, on cells; MHC class I molecule, empty until peptide is added; detected with FITC anti-HLA-A24 antibody 17A10
- protocol.text: MHC class I stabilization on T2-A24 cells, flow cytometry, 100 ug/mL peptide
Consider the following binders and their measured MFI (solvent ratio) readings.

binder	MFI (solvent ratio)
YILKNVQKV [FAM83B-derived peptide F63_9]	1 ratio to solvent
HLLTIKETI [FAM83B-derived peptide F131_9]	2.4 ratio to solvent
KVMYGSYSYMWSF [FAM83B-derived peptide F238_13]	5.1 ratio to solvent
PLPESIPKL [FAM83B-derived peptide F594_9]	3.8 ratio to solvent
